# Tested on: IOR/OS9 OS cells
# runDescription: Cell viability IC50, IOR/OS9
# Assay type: cell-based
# experimentalParameters: Homo sapiens
pIC50: −log10 of the molar value.
measureName: pIC50

Looking up Nc1nc(Cl)nc2c1ncn2[C@H]1C[C@H](O)[C@@H](CO)O1 , I see its pIC50 listed as < 4.52

We now examine a further compound.
Looking up Nc1nc(Cl)nc2c1ncn2[C@@H]1O[C@H](CO)[C@@H](O)[C@@H]1F , I see its pIC50 listed as < 5.00

* * *

Entries and their measured pIC50 follow.
# System: IOR/CAR ES cells
# runDescription: Cell viability IC50, IOR/CAR
# Type: cell-based
# experimentalParameters: Homo sapiens
Schema: pIC50 number; meaning minus log10 of the concentration expressed in molar units.

Assay IOR/CAR ES cells, sample Nc1nc(Cl)nc2c1ncn2[C@@H]1O[C@H](CO)[C@@H](O)[C@@H]1F [clofarabine] , pIC50 read: 6.54

We now examine a further molecule.
Assay IOR/CAR ES cells, sample Nc1nc(Cl)nc2c1ncn2[C@H]1C[C@H](O)[C@@H](CO)O1 [cladribine] , pIC50 read: 6.18

* * *

# Tested on: TC-71 and RD-ES cell lines
# runDescription: Dose-dependent cytotoxicity assay in ES cell lines
# Format: cell-based, human
# experimentalParameters: Homo sapiens; dose-response at 1, 3, 10 and 30 μmol/L in TC-71 and RD-ES
Entries and their measured IC50 follow.

Looking up Nc1nc(Cl)nc2c1ncn2[C@H]1C[C@H](O)[C@@H](CO)O1 , I see its IC50 listed as < 1000 nM

We now examine a further compound.
Looking up Nc1nc(Cl)nc2c1ncn2[C@@H]1O[C@H](CO)[C@@H](O)[C@@H]1F , I see its IC50 listed as < 1000 nM

* * *

# System: RD18 rhabdomyosarcoma cells
# runDescription: Cell viability IC50, RD18
# Type: cell-based
# experimentalParameters: Homo sapiens, RD18 (RM)
Entries and their measured pIC50 follow.
Schema: pIC50 number; meaning minus log10 of the concentration expressed in molar units.

Looking up Nc1nc(Cl)nc2c1ncn2[C@H]1C[C@H](O)[C@@H](CO)O1 , I see its pIC50 listed as 5.44

Looking up Nc1nc(Cl)nc2c1ncn2[C@@H]1O[C@H](CO)[C@@H](O)[C@@H]1F , I see its pIC50 listed as 6.01

* * *

# Tested on: A673 ES cells
# runDescription: Cell viability IC50, A673
# Type: cell-based
# experimentalParameters: Homo sapiens
measureName: pIC50
Schema: pIC50 number; meaning minus log10 of the concentration expressed in molar units.

Looking up Nc1nc(Cl)nc2c1ncn2[C@H]1C[C@H](O)[C@@H](CO)O1 , I see its pIC50 listed as 5.13

We now examine a further compound.
Looking up Nc1nc(Cl)nc2c1ncn2[C@@H]1O[C@H](CO)[C@@H](O)[C@@H]1F , I see its pIC50 listed as 5.72

* * *

# System: RH1 rhabdomyosarcoma cells
# runDescription: Cell viability IC50, RH1
# Format: cell-based
# experimentalParameters: Homo sapiens, RH1 (RM)
Entries and their measured pIC50 follow.
Schema: pIC50 number; meaning minus log10 of the concentration expressed in molar units.

Looking up Nc1nc(Cl)nc2c1ncn2[C@H]1C[C@H](O)[C@@H](CO)O1 [cladribine] , I see its pIC50 listed as 6.05

Looking up Nc1nc(Cl)nc2c1ncn2[C@@H]1O[C@H](CO)[C@@H](O)[C@@H]1F [clofarabine] , I see its pIC50 listed as 6.70
